- Measured On: Dual specificity protein phosphatase 3 (Homo sapiens)
- Test Method Notes: VHR1 phosphatase inhibitors, biochemical (AID 1878)
- Condition Summary: recombinant VHR phosphatase, fluorogenic substrate; at 13.3 µM
The campaign covered roughly 1,000 compounds. About 200 (20%) were called active. Cut-off read from the data, not from the text of the source: active = inhibition above about 55%; inactive = the rest. Not all results are given here. Measured potencies and affinities stand elsewhere.
Pick one and only one: Y = active, N = inactive

compound="COc1ccc(C(=O)C2CCCN(C(=O)c3cccc(N(C)C)c3)C2)cc1OC (stereo unspecified)" measured_on="Dual specificity protein phosphatase 3 (Homo sapiens)" assigned_class=N
compound=CCCc1c(C(=O)N/N=C(\C)CCc2ccccc2)nnn1-c1nonc1N measured_on="Dual specificity protein phosphatase 3 (Homo sapiens)" assigned_class=N
compound=O=C(CC12CC3CC(CC(C3)C1)C2)NCc1ccc(F)cc1 measured_on="Dual specificity protein phosphatase 3 (Homo sapiens)" assigned_class=N

GET /call?item= Cc1ccc2nc(NC(=O)C3CC3C)sc2c1 (stereo unspecified) returns the recorded outcome of this test.
N

Also `C/C(=N\NC(=O)c1nnn(-c2nonc2N)c1C)c1ccc(OCc2ccccc2)cc1` ?
N

And the next one, CN1CCN(Cc2nc3ccccc3n2C)CC1CCO (stereo unspecified) ?
N

Then what about the compound `COCCNC(=O)Cn1nc(-c2ccc(C)cc2)c2ccccc2c1=O` ?
N

Item: Cc1ccc(CN2CCN(Cc3cccc(C)n3)CC2CCO)cc1 (stereo unspecified)
N

====

Below, each of the molecules is paired with its reported inhibition value.
- Measured On: Dual specificity protein phosphatase 3 (Homo sapiens) (UniProt P51452)
- Sequence (P51452 whole entry, looked up): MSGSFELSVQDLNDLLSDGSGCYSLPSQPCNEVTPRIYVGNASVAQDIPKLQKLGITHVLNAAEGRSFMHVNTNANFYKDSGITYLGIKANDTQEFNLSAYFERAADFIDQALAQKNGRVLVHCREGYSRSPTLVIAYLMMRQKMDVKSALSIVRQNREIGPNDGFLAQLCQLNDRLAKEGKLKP
- Test Method Notes: VHR1 phosphatase inhibitors, biochemical (AID 1878)
- Condition Summary: recombinant VHR phosphatase, fluorogenic substrate; at 13.3 µM; stronger effect = higher value
About 200 (20%) of roughly 1,000 compounds were called active. The list is a sample of the results. Measured potencies and affinities stand elsewhere.
Entry rule: numbers only, all in %.

Use these answered entries as a reference point.
molecule="C=CCN(C(=O)CNC(=O)c1cccs1)C(C(=O)NC(C)(C)C)c1ccccc1 (stereo unspecified)" unit_tag=% observed_value=-6
molecule=COc1cc(CNc2ccc(N3CCOCC3)cc2)ccc1OCC(=O)NC(C)(C)C unit_tag=% observed_value=2.1
molecule=C=CCn1c(SCC(=O)c2c(C)[nH]c3ccccc23)nnc1-c1ccncc1 unit_tag=% observed_value=35.6
molecule=Nc1ccc(C(=O)N(CCO)CCO)cc1 unit_tag=% observed_value=4.4

# input molecule: O=C(NCCc1ccccc1)C1CC(=O)N(CCc2ccccc2)C1 (stereo unspecified) ; wanted: its inhibition
-8.3

Param item: `Cc1ccc(C(=O)Nc2ccccc2N2CCCC2)cc1`
21

====

- Measured On: Dual specificity protein phosphatase 3 (Homo sapiens)
- Test Method Notes: VHR1 phosphatase inhibitors, biochemical (AID 1878)
- Condition Summary: recombinant VHR phosphatase, fluorogenic substrate; at 13.3 µM; stronger effect = higher value
The campaign covered roughly 1,000 compounds. About 200 (20%) were called active. Not all results are given here. Potency and affinity values are given separately.
Reported inhibition values for the following compounds.
Enter your answer as a number in %; do not include the unit.

compound=c1ccc(-c2ccnc3nc(N4CCN(c5ccccc5)CC4)nn23)cc1 assay_readout=inhibition unit_tag=% observed_value=19
compound="CCC1CCCCN1CCCNC(=O)CNC(=O)c1nn(-c2ccc(OC)c(Cl)c2)c(=O)c2ccccc12 (stereo not drawn)" assay_readout=inhibition unit_tag=% observed_value=-5.3
compound=Cc1nc2cc(NC(=O)c3ccc(Cl)cc3)ccc2n1C assay_readout=inhibition unit_tag=% observed_value=-9.5
compound=CC(=O)c1ccc(NC(=O)CSc2nc(C)cc(C)c2C(N)=O)cc1 assay_readout=inhibition unit_tag=% observed_value=-9.9
compound=Cc1ccc(OCC(=O)Nc2ccc(C(N)=O)cc2)cc1 assay_readout=inhibition unit_tag=% observed_value=19.4

Item under review: COc1ccc(N(C(=O)c2snc(C(N)=O)c2N)C(C(=O)NC2CCCC2)c2ccc(F)cc2)c(OC)c1 (stereo not drawn) . Reported inhibition?
-0.8

Query `COc1ccc(CN(C)C(=O)c2cccc(NS(=O)(=O)c3ccccc3)c2)cc1F` next
6

And then `O=C(N/N=C/c1ccncc1)c1cccc(S(=O)(=O)Nc2ccc(Cl)cc2)c1` , what is it?
98.9

====

- Measured On: Dual specificity protein phosphatase 3 (Homo sapiens)
- Test Method Notes: VHR1 phosphatase inhibitors, biochemical (AID 1878)
- Condition Summary: recombinant VHR phosphatase, fluorogenic substrate; at 13.3 µM
The whole screen tested about 1,000 compounds, of which about 200 (20%) were called active. No stated cut-off is given here; in the data, active means inhibition above about 55%; inactive means the rest. The list is a sample of the results. Entries with a potency or affinity are not part of this list.
Log the outcome using a class from y = active, n = inactive

# example entries with known answers
compound=O=C(O)CCCNc1cc(N2CCC3(CC2)OCCO3)c2noc3c2c1C(=O)c1ccccc1-3 assigned_class=n
compound=CCOC(=O)CCNC(=O)N1CCC(CCC(=O)NCc2ccc(F)cc2)CC1 assigned_class=n
compound=Cc1cc(O)c(C=Nc2ccc(N3CCOCC3)cc2)c(C)c1Cl assigned_class=n
compound=Cc1ccccc1NC(=O)CN1C(=O)N/C(=C\c2ccccc2OCc2ccc(C(=O)O)cc2)C1=O assigned_class=y
compound=O=C(NCCN1CCCCC1)Nc1ccccc1F assigned_class=n
compound="COC(=O)c1ccc(CN2CCCC(CNC(=O)Cc3ccc(OC)cc3)C2)cc1 (stereo not drawn)" assigned_class=n

Each compound tested received a call. Report the one for CC1CCN(Cc2nnnn2CCCC(=O)N(C)C(C)c2ccccn2)CC1 (stereo not drawn) .
n

Again, but for `Cc1cc(C(=O)O)ccc1-c1ccc(/C=C2\SC(=O)N(CC(=O)Nc3ccc4c(c3)OCO4)C2=O)o1`
y

====

Recorded inhibition, one value per entry.
- Measured On: Dual specificity protein phosphatase 3 (Homo sapiens) (UniProt P51452)
- Test Method Notes: VHR1 phosphatase inhibitors, biochemical (AID 1878)
- Condition Summary: recombinant VHR phosphatase, fluorogenic substrate; at 13.3 µM; stronger effect = higher value
Out of some 1,000 compounds screened, about 200 (20%) were called active. A selection follows. Results with a measured potency or affinity are listed apart.
Write it as a number; the unit % goes unstated.

Check out these entries, answers already filled in.
molecule="CCOc1ccc(C2NC(=O)c3ccccc3O2)cc1OC (stereo not given)" observed_value=-17.6
molecule="CCCn1c(C(O)c2ccc(OC)c(OC)c2)nc2ccccc21 (stereo not given)" observed_value=7
molecule=CC1=CC(=O)c2c(O)ccc(O)c2C1=O observed_value=65.2
molecule=Cc1cc2nc(/C=C/c3nc4cc(C)c(C)cc4[nH]3)[nH]c2cc1C observed_value=82.4
molecule=S=c1[nH]nc(-c2ccccc2)n1/N=C/c1c[nH]c2ccccc12 observed_value=1.6
molecule=CCc1ccc(/C=C/c2c([N+](=O)[O-])c(=O)n(C)c(=O)n2C)cc1 observed_value=3.6
molecule=Cc1ccccc1-n1c(SCC(=O)Nc2ccccc2Cl)nc2n[nH]c(C)c2c1=N observed_value=-7.4
molecule=O=C(Nc1cccc(Cl)c1)OCCOc1ccccc1 observed_value=-0.9

// returns reported inhibition for input `CN1CCCN(C(=O)c2cccc(Cl)c2)CC1`
-8.6

Ok, now Cc1ccc2c(c1)N(CC(=O)NCCCN1CCCCC1C)C(=O)c1cccnc1O2 (stereo not given)
-7.1

Same for `Cc1ccc(CC(=O)NC2CCN(C)CC2)cc1`
21.9

Same question, `CN1CCC(N(C)S(=O)(=O)c2ccc(Cl)cc2)CC1` this time
-9.6

Thanks! And `C/C(=N\NC(=O)C1CCCC1)c1ccc(Cl)cc1` ?
3.5

Likewise for COc1ccc2c(c1)cc1c(=O)n(CC(=O)NC(C)CCc3ccccc3)nc(C)n12 (stereo not given) ?
-4

Do the same for `O=c1[nH]c(NCCO)nnc1Cc1ccccc1` please
-18.8

====

- Measured On: Dual specificity protein phosphatase 3 (Homo sapiens) (UniProt P51452)
- Test Method Notes: VHR1 phosphatase inhibitors, biochemical (AID 1878)
- Condition Summary: recombinant VHR phosphatase, fluorogenic substrate; at 13.3 µM
The campaign covered roughly 1,000 compounds. About 200 (20%) were called active. Cut-off read from the data, not from the text of the source: active = inhibition above about 55%; inactive = the rest. A selection follows. Entries with a potency or affinity are not part of this list.
Please state which outcome applies, choosing from active, inactive

Illustrative cases are given below, each with its answer.
compound=C[n+]1cccc(C(=O)Nc2ccccc2)c1 assigned_class=inactive
compound=O=C(Cn1cnc2c(oc3nc4c(cc32)CCCC4)c1=O)Nc1cccc(Cl)c1 assigned_class=inactive

Dear colleague, could you share the recorded outcome for CCN1CCN(C(CNS(=O)(=O)c2ccc(OC)c(C)c2)c2cccnc2)CC1 (centres undefined) when you have a moment?
inactive

Repeat for the following compound: CC(=O)c1ccc(OCC(=O)N2CCCC(Nc3ccc(C)c(C)c3)C2)cc1 (centres undefined)
inactive

Moving on to CN(C)S(=O)(=O)c1ccc(C(=O)N2CC(=O)Nc3ccc(F)cc3C2c2ccc(F)cc2)cc1 (centres undefined)
inactive

# repeat for CN(C)c1ccc(NC(=O)CN2C3CCCC2CC(NC(=O)c2ccccc2)C3)cc1 (centres undefined)
inactive

Entry to check: `COc1cc(OC)c(NC2=CC(=O)C(=O)c3ccccc32)cc1Cl`
inactive

Try this compound next: CCCN1CCC(NC(=O)CC2C(=O)NCCN2Cc2ccccc2C)CC1 (centres undefined)
inactive

Then `COc1ccc(C(=O)NCc2nnc(SCC(=O)Nc3cc(OC)ccc3OC)o2)cc1` ?
inactive

Same again, this time with CCn1c(C)c(C)c2cc(C(=O)NCCCN3CCCCC3C)ccc21 (centres undefined)
inactive

Further, for `O=C(Nc1cccc2ncccc12)c1ccccc1F` ?
inactive

Next compound: `NS(=O)(=O)c1ccc(NC(=O)c2cccc(N3C(=O)c4ccccc4C3=O)c2)cc1`
active

Same lookup for `COc1cc(OC)nc(Oc2cc(C=O)ccc2OC)n1` , please.
inactive

Moving on to the next compound: O=C(c1cc(C2CC2)on1)N1CCCC(N2CCN(c3ccc(F)cc3)CC2)C1 (centres undefined)
inactive

Values compiled from PubChem BioAssay AID1878.
